Test system: Rhizoctonia solani
measurementDescription: Example F rice sheath blight
Type: in vivo
testParameters: Rhizoctonia solani, 144 h, 100 PPM; read-out: disease control rating, Ex. F
readout: pest or weed control at 100 ppm (%)
Answer in %, number only, no unit symbol.

### Prompt Tell me measured pest or weed control at 100 ppm for C=C(c1ccc(F)cc1)C(O)(Cn1cncn1)c1ccc(Cl)cc1Cl (stereo not drawn) [Example 2] please.
### Response 100

### Prompt Provide only the value of recorded pest or weed control at 100 ppm for C=C(c1ccc(F)cc1)C(O)(Cn1cncn1)c1ccccc1Cl (stereo not drawn) [Example 646]
### Response 61

### Prompt Determine from records and report pest or weed control at 100 ppm for C=C(CO)C(O)(Cn1cncn1)c1ccccc1 (stereo not drawn) [Example 448]
### Response 42

### Prompt Specify measured pest or weed control at 100 ppm for C=C(c1ccc(Cl)cc1Cl)C(O)(Cn1cncn1)c1ccc(F)cc1 (stereo not drawn) [Example 99] .
### Response 61

### Prompt Identify pest or weed control at 100 ppm associated with the compound C=C(c1ccc(Cl)cc1)C(O)(Cn1cncn1)c1ccc(F)cc1 (stereo not drawn) [Example 25]
### Response 48

### Prompt Identify the reported pest or weed control at 100 ppm for the following entry. C=C(c1ccc(F)cc1)C(O)(Cn1cncn1)c1ccc(F)cc1F (stereo not drawn) [Example 4]
### Response 100

### Prompt Return pest or weed control at 100 ppm (reported value) for this compound: C=C(c1cccc(Cl)c1)C(O)(Cn1cncn1)c1ccc(Cl)cc1Cl (stereo not drawn) [Example 40]
### Response 61

### Prompt Please give the documented pest or weed control at 100 ppm of C=C(c1ccccc1F)C(O)(Cn1cncn1)c1ccc(F)cc1 (stereo not drawn) [Example 10]
### Response 17

### Prompt Please indicate pest or weed control at 100 ppm recorded for C=C(c1ccccc1)C(O)(Cn1ncnc1S)c1ccc(F)cc1 (stereo not drawn) [Example 1278]
### Response 36

====

Tested on: Plasmorpara viticola
measurementDescription: Example I grape downy mildew
Type: in vivo
testParameters: read-out: disease control rating, Ex. I
Description: The test compounds were dissolved in acetone in an amount equal to 6% of the final volume and then suspended at a concentration of 100 or 20 ppm in purified water containing 250 ppm of the surfactant TREM 014 (polyhydric alcohol esters). This suspension was sprayed to the point of run-off on grape seedlings.
readout: pest or weed control at 100 ppm (%)
// return numeric value only (unit: %, not printed)

### Prompt Supply reported pest or weed control at 100 ppm belonging to this compound: C=C(c1ccccc1Cl)C(O)(Cn1cncn1)c1ccc(Cl)c(Cl)c1 (stereo not drawn) [Example 627]
### Response 61

### Prompt Look up and state reported pest or weed control at 100 ppm for C=C(c1ccc(OC)cc1)C(O)(Cn1cncn1)c1ccc(F)cc1 (stereo not drawn) [Example 726]
### Response 38

### Prompt Return reported pest or weed control at 100 ppm. Input compound: C=C(c1cccc2ccccc12)C(O)(Cn1cncn1)c1ccc(F)cc1 (stereo not drawn) [Example 208]
### Response 74

### Prompt Give the reported pest or weed control at 100 ppm for this compound. C=C(CN1CC(C)OC(C)C1)C(O)(Cn1cncn1)c1ccc(F)cc1 (stereo not drawn) [Example 477]
### Response 0

### Prompt Indicate the recorded pest or weed control at 100 ppm value for this compound: C=C(c1ccccc1)C(O)(Cn1cncn1)c1ccc(Cl)cc1 (stereo not drawn) [Example 51]
### Response 0

### Prompt Recall and state the measured pest or weed control at 100 ppm for C=C(CO)C(O)(Cn1cncn1)c1ccc(-c2ccccc2)cc1 (stereo not drawn) [Example 452] .
### Response 0

### Prompt In one line, give reported pest or weed control at 100 ppm of the entry C=C(c1ccccc1Cl)C(O)(Cn1cncn1)c1ccc(Cl)cc1Cl (stereo not drawn) [Example 33] .
### Response 24

### Prompt Give the reported value of pest or weed control at 100 ppm for this record: C=C(c1cccc(Cl)c1)C(O)(Cn1cncn1)c1ccc(F)cc1 (stereo not drawn) [Example 39]
### Response 81

### Prompt For the compound C=C(c1ccc(F)cc1)C(O)(Cn1cncn1)c1ccc(F)cc1 (single isomer, unassigned) [Example 1277] , give its measured pest or weed control at 100 ppm value.
### Response 25

====

For each entry below, report its pest or weed control at 100 ppm value.
Tested on: Rhizoctonia solani
measurementDescription: Example F rice sheath blight
Format: in vivo
testParameters: Rhizoctonia solani, 144 h, 100 PPM; read-out: disease control rating, Ex. F
Give just the number in %; leave the unit off.

### Prompt # return pest or weed control at 100 ppm of C=C(c1ccccc1Cl)C(O)(Cn1cncn1)c1ccc(F)cc1F (stereo not drawn) (system: Rhizoctonia solani)
### Response 100

### Prompt Enter recorded pest or weed control at 100 ppm with Rhizoctonia solani for C=C(c1ccccc1)C(O)(Cn1cncn1)c1ccc(F)cc1F (stereo not drawn) here.
### Response 81

### Prompt Enter pest or weed control at 100 ppm (test system Rhizoctonia solani) for C=C(c1ccc(F)cc1)C(Cn1cncn1)(OC)c1ccc(F)cc1 (stereo not drawn)
### Response 62

### Prompt With Rhizoctonia solani as the test system, provide measured pest or weed control at 100 ppm for this compound: C=C(CN(C)C)C(O)(Cn1cncn1)c1ccc(Br)cc1 (stereo not drawn)
### Response 0

### Prompt Report measured pest or weed control at 100 ppm on Rhizoctonia solani; entry: C=C(CO)C(O)(Cn1cncn1)c1ccc(F)cc1 (stereo not drawn)
### Response 34

### Prompt Specify the recorded pest or weed control at 100 ppm for C=C(c1ccc(F)cc1)C(Cn1cncn1)(OC(=O)NC)c1ccc(F)cc1 (stereo not drawn) , system: Rhizoctonia solani.
### Response 0

### Prompt Please tell me the measured pest or weed control at 100 ppm for C=C(c1ccccc1Cl)C(O)(Cn1cncn1)c1ccccc1F (stereo not drawn) ; system: Rhizoctonia solani.
### Response 100

### Prompt Please indicate recorded pest or weed control at 100 ppm of C=C(c1cccc2ccccc12)C(O)(Cn1cncn1)c1ccc(F)cc1 (stereo not drawn) measured with Rhizoctonia solani.
### Response 61

### Prompt // output pest or weed control at 100 ppm; input C=C(c1ccccc1)C(O)(Cn1ncnc1SCCCC)c1ccc(F)cc1 (stereo not drawn) ; system Rhizoctonia solani
### Response 0

====

System: RICE INDICA EFF
measurementDescription: Test C rice paddy
Format: in vivo
testParameters: Oryza sativa, 504 h; 1000 G/HA, 21 days; read-out: plant response
Note to self: values exactly at 50% are met. So pest or weed control at 1000 g/ha at or above 50% is met, below is not met.

### Prompt Answer whether pest or weed control at 1000 g/ha of C=C(c1ccccc1)C(O)(Cn1cncn1)c1ccc(Cl)cc1Cl (centres unmarked) [Example 50] is greater than or equal to 50%.
### Response met

### Prompt Confirm if pest or weed control at 1000 g/ha reported for the compound C=C(c1ccc(F)cc1)C(O)(Cn1ncnc1I)c1ccc(F)cc1F (centres unmarked) [Example 1381] is 50% or above.
### Response met

### Prompt Is reported pest or weed control at 1000 g/ha greater than or equal to 50% here: C=C(c1ccccc1Cl)C(O)(Cn1cncn1)c1ccc(Cl)cc1Cl (centres unmarked) [Example 33]
### Response met

### Prompt Tell me whether pest or weed control at 1000 g/ha is at least 50% here: C=C(c1ccc(F)cc1)C(O)(Cn1ncnc1S)c1ccc(F)cc1F (centres unmarked) [Example 1304]
### Response not met

====

Tested on: LAMBSQUARTER
measurementDescription: Test E
Assay type: in vivo, Chenopodium album
testParameters: POSTEMERGENCE 0250 GM/HA
readout: plant response (%)
Answer format: numeric, % implied, no suffix.

### Prompt Give the measured plant response for C=C(c1ccccc1)C(O)(Cn1cncn1)c1ccc(F)cc1F (stereo not shown)
### Response 0

### Prompt Indicate the recorded plant response value for this compound: C=C(c1ccc(F)cc1)C(O)(Cn1cncn1)c1ccccc1F (stereo not shown)
### Response 20

### Prompt Tell me plant response reported for C=C(c1ccc(F)cc1)C(O)(Cn1cncn1)c1ccc(F)cc1F (stereo not shown)
### Response 20

### Prompt Answer with the recorded plant response of C=C(c1ccccc1)C(O)(Cn1cncn1)c1ccc(Cl)cc1 (stereo not shown) only.
### Response 20

====

For each entry below, report its pest or weed control at 500 g/ha value.
System: SCIRPUS
measurementDescription: Test C rice paddy
Format: in vivo, Scirpus paludosus
testParameters: Bolboschoenus maritimus, 504 h; 0500 G/HA, 21 days; read-out: plant response
Write the value in % as a bare number.

### Prompt Provide pest or weed control at 500 g/ha, tested on SCIRPUS, for C=C(c1cccc(F)c1)C(O)(Cn1cncn1)c1ccc(F)cc1F (centres unmarked) [Example 18] .
### Response 0

### Prompt Quote pest or weed control at 500 g/ha with test system SCIRPUS for C=C(c1ccccc1)C(O)(Cn1cncn1)c1ccc(Cl)cc1Cl (centres unmarked) [Example 50]
### Response 0

### Prompt // fetch pest or weed control at 500 g/ha for C=C(c1ccccc1Cl)C(O)(Cn1cncn1)c1ccc(F)cc1F (centres unmarked) [Example 35] ; system: SCIRPUS
### Response 0

### Prompt Check SCIRPUS data and give pest or weed control at 500 g/ha for C=C(c1ccc(F)cc1)C(O)(Cn1ncnc1S)c1ccc(F)cc1F (centres unmarked) [Example 1304] .
### Response 70

### Prompt Using SCIRPUS as the test system, report measured pest or weed control at 500 g/ha of C=C(c1ccc(Cl)cc1Cl)C(O)(Cn1cncn1)c1ccccc1F (centres unmarked) [Example 107] .
### Response 80

### Prompt Recall the reported pest or weed control at 500 g/ha of C=C(c1ccc(Cl)cc1)C(O)(Cn1cncn1)c1ccccc1F (centres unmarked) [Example 669] when tested on SCIRPUS.
### Response 0

### Prompt Give pest or weed control at 500 g/ha; test system SCIRPUS; molecule C=C(c1ccc(F)cc1)C(O)(Cn1ncnc1I)c1ccc(F)cc1F (centres unmarked) [Example 1381]
### Response 0

### Prompt Report pest or weed control at 500 g/ha from SCIRPUS testing of C=C(c1ccccc1Cl)C(O)(Cn1cncn1)c1ccc(Cl)cc1Cl (centres unmarked) [Example 33]
### Response 0
